These entries and their values trace back to paper doi:10.1101/2024.08.19.608619.

perc_max_measured reference
- Test system: HeLa-ACE2 cells
- CONDITIONS_USED: HeLa-ACE2 cytotoxicity; highest measured response of the dose series
A number alone suffices; assume %.

Check out these entries, answers already filled in.
1) CC(C)(C)[C@H](Nc1ncnc2[nH]c(-c3cnn(CC(N)=O)c3)cc12)c1ccc2c(c1)OCCO2 (single isomer, unassigned)    98.779
2) CNCc1cc(-c2cc3c(N[C@@H](c4ccc5c(c4)S(=O)(=O)CCC5)C(C)C)ncnc3[nH]2)co1    120.991
3) CC(C)[C@@H](Nc1ncnc2[nH]ccc12)c1ccc2c(c1)S(=O)(=O)CCC2 (single isomer, unassigned)    101.14
4) C[C@@H](C(=O)O)[C@H](NC(=O)c1ncnc2[nH]ccc12)c1ccc(Br)cc1    106.212

Response field perc_max_measured (HeLa-ACE2 cells) for item Cc1nn(C)cc1-c1cc2c(NC(c3ccc4c(c3)S(=O)(=O)CCC4)C(C)C)ncnc2[nH]1 (centres unmarked) : 134.035

CCNC(=O)c1cc2c(N[C@@H](c3ccc4c(c3)S(=O)(=O)CCO4)C(C)C)ncnc2[nH]1 (racemic) tested on HeLa-ACE2 cells gave perc_max_measured: 105.961

Fill in: HeLa-ACE2 cells perc_max_measured for CC(C)[C@H](Nc1ncnc2[nH]c(-c3cnn(C)c3C#N)cc12)c1ccc2c(n1)NC(=O)CO2 (single isomer, unassigned) = 109.886

====

- SYSTEM: Potassium Channel hERG (human) (Homo sapiens, UniProt Q12809)
- Construct: purchased Eurofins Cerep (SafetyScreen44), recognised from the panel format
- Sequence (Q12809 whole entry): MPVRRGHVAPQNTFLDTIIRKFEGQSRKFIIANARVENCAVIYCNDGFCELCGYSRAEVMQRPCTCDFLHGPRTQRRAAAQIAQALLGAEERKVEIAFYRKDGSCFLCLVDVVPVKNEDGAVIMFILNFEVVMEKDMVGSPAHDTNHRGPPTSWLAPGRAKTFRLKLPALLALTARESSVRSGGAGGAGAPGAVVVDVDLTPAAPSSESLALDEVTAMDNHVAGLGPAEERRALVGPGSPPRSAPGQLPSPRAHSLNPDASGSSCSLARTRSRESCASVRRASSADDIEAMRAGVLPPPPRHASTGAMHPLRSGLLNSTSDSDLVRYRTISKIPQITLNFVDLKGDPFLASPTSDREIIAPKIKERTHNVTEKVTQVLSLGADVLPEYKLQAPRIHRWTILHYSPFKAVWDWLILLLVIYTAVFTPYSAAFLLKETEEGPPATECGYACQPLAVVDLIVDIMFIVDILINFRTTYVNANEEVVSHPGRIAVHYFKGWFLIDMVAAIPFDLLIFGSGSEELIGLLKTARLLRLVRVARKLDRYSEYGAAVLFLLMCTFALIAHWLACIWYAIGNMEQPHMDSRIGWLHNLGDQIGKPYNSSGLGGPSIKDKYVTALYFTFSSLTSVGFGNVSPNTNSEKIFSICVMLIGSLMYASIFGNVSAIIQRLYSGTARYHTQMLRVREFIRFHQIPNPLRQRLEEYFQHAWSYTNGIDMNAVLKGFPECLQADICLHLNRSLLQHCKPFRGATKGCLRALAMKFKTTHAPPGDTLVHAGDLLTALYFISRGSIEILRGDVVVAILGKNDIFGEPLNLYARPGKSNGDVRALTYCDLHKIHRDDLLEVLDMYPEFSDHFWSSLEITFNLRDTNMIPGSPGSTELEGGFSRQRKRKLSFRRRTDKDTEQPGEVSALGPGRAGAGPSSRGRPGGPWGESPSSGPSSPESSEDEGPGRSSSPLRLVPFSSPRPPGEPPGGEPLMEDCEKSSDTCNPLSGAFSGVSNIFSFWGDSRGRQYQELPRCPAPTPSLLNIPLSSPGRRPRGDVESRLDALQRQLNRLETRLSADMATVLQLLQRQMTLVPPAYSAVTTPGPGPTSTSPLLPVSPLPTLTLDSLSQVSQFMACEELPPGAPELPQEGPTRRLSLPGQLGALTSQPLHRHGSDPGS
- METHOD_SUMMARY: In vitro CEREP profiling, Potassium Channel hERG (human)- [3H] Dofetilide
- Format: binding
- CONDITIONS_USED: test compound concentration 10 uM
MEASUREMENT_LABEL: perc_inhibition (% inhibition of the binding of a ligand specific for each target) (%)
API: value field is a number in %; no unit string.

1) CC(C)[C@H](Nc1ncnc2[nH]c(-c3cnn(C)c3C#N)cc12)c1ccc2c(n1)OCCO2    29
2) Cn1ncc(-c2cc3c(N[C@@H](c4ccc5c(n4)OCCO5)C(C)(C)C)ncnc3[nH]2)c1C#N    36
3) CNCc1cc(-c2cc3c(N[C@@H](c4ccc5c(c4)S(=O)(=O)CCC5)C(C)C)ncnc3[nH]2)co1    26
4) COc1ccc([C@H](Cc2nnn[nH]2)NC(=O)c2ncnc3[nH]ccc23)cc1    5
5) CC(C)[C@H](Nc1ncnc2[nH]ccc12)c1ccc2c(c1)S(=O)(=O)CCC2    20

perc_inhibition (% inhibition of the binding of a ligand specific for each target) on Potassium Channel hERG (human) (Homo sapiens, UniProt Q12809) for CC(C)[C@@H](Nc1ncnc2[nH]c(-c3cnn(C)c3C#N)cc12)c1ccc2c(n1)OCCO2 is 32

Fill in: Potassium Channel hERG (human) (Homo sapiens, UniProt Q12809) perc_inhibition (% inhibition of the binding of a ligand specific for each target) for C[C@H](C(=O)O)[C@@H](NC(=O)c1ncnc2[nH]ccc12)c1ccc(Br)cc1 = 14

====

# reported perc_min_measured; entries follow
- Tested on: HeLa-ACE2 cells
- CONDITIONS_USED: HeLa-ACE2 cytotoxicity; lowest measured response of the dose series
Give just the number in %; leave the unit off.

1. CC(C)[C@@H](Nc1ncnc2[nH]ccc12)c1ccc2c(c1)S(=O)(=O)CCO2 [ASAP-0012318]    90.526
2. CC(C)[C@@H](Nc1ncnc2[nH]ccc12)c1ccc2c(c1)S(=O)(=O)CCC2 (single isomer, unassigned) [ASAP-0008676]    87.391
3. C[C@@H](C(=O)O)[C@H](NC(=O)c1ncnc2[nH]ccc12)c1ccc(Br)cc1 [ASAP-0014726]    72.067
4. CCNC(=O)c1cc2c(N[C@H](c3ccc4c(c3)OCCO4)C(C)C)ncnc2[nH]1 [ASAP-0013824]    90.423
5. CC(C)[C@@H](Nc1ncnc2[nH]c(-c3ccc4nnn(C)c4c3)cc12)c1ccc2c(c1)S(=O)(=O)CCC2 [ASAP-0011201]    70.638

So for CC(C)[C@@H](Nc1ncnc2[nH]c(-c3cnn(CC(=O)N(C)C)c3)cc12)c1ccc2c(c1)S(=O)(=O)CCC2 (racemic) [ASAP-0008668] , the logged perc_min_measured turned out to be 68.704

Kindly note the recorded perc_min_measured for CC(C)[C@@H](Nc1ncnc2[nH]c(-c3cnn(C)c3)cc12)c1ccc2c(c1)S(=O)(=O)NCC2 [ASAP-0011192] , which is 90.498

Measured perc_min_measured of CC(C)[C@H](Nc1ncnc2[nH]c(-c3cnn(C)c3C#N)cc12)c1ccc2c(c1)S(=O)(=O)CCC2 (single isomer, unassigned) [ASAP-0011144] : 87.504
